# System: MDA-MB231-luc-D3H2LN cells
# method_description: Viability (MTS) assay on the cells in collagen under invasion assay conditions
# Format: cell-based, human
# condition_summary: loss of viability at the concentration giving 0.5 × effect of 10 μM Y-27632, invasion assay conditions
parameter: (+ MDA tox. under these cond.) % tox

The examples below pair each entry with its known result.
compound: O=C(NCCCN1CCOCC1)c1cccc(Nc2cc(C(=O)Nc3ccncc3)ccn2)c1
(+ MDA tox. under these cond.) % tox: <10%

compound: CCN(CC)CCCNC(=O)c1ccnc(Nc2cccc(C(=O)Nc3ccncn3)c2)c1
(+ MDA tox. under these cond.) % tox: <10%

compound: CCN(CC)CCCNC(=O)c1cccc(Nc2cccc(/C=C/c3ccncc3)c2)c1 [Compound C88, reference compound]
(+ MDA tox. under these cond.) % tox: <10%

compound: CCN(CC)CCCNC(=O)c1ccnc(Nc2cccc(C(=O)Nc3ccncc3)c2)c1
(+ MDA tox. under these cond.) % tox: <10%

compound: CN(C(=O)c1cccc(Nc2cccc(C(=O)NCCCN3CCCC3)c2)c1)c1ccncc1
(+ MDA tox. under these cond.) % tox: <10%

compound: CCN(CC)CCCNC(=O)c1cccc(Nc2cccc(C(=O)N(C)c3ccncc3)c2)c1
(+ MDA tox. under these cond.) % tox: <10%

compound: CCN(CC)CCCNC(=O)c1cccc(Nc2cccc(C(=O)Nc3ccncn3)c2)n1
(+ MDA tox. under these cond.) % tox: <10%

Could you tell me which (+ MDA tox. under these cond.) % tox is on file for O=C(NCCCN1CCOCC1)c1cccc(Nc2cccc(/C=C/c3ccncc3)c2)c1 [Compound 583, reference compound] ?
<10%
